# target_under_test: T1, recombinant human CD19 (human, UniProt P15391 20-291, limits assumed, fluorescent label, kind and site not stated)
# T1 construct: soluble labeled antigen titrated on yeast; sorting steps used CD19-Fc, so the labeled antigen may be the Fc fusion; also called labeled CD19; fluorescently tagged antigen
# T1 sequence (looked up): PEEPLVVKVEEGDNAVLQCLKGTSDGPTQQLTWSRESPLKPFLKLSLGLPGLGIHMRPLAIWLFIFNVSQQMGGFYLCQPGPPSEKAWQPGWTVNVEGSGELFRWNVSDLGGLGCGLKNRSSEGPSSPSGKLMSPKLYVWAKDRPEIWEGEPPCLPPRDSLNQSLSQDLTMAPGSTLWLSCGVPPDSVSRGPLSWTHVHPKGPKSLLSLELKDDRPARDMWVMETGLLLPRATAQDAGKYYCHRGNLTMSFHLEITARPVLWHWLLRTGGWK
# assay_procedure: flow cytometry of yeast-displayed scFv with decreasing amounts of labeled CD19
Parameter EC50: see the listing below.
measure: EC50

[
  {
    "binder": "human anti-CD19 ScFv binder M19217-1 (scFv, also called LTG2065) scFv: EVQLVQSGAEVKKPGASVKVSCKASGYTFTSYYMHWVRQAPGQGLEWMGLINPSGGSTSYAQKFQGRVTMTRDTSTSTVYMELSSLRSEDTAVYYCARSDRGITATDAFDIWGQGTMVTVSSGGGGSGGGGSGGGGSQSVLTQPPSVSVAPGRMAKITCGGSDIGNKNVHWYQQKPGQAPVLVVYDDYDRPSGIPERFSGSNSGDAATLTISTVEVGDEADYFCQVWDGSGDPYWMFGGGTQLTVL",
    "measured": "< 0.01 µg/mL"
  },
  {
    "binder": "human anti-CD19 ScFv binder M19217-7 (scFv) EVQLVQSGAEVNKPGASVKVSCKASGYTFTSYYMHWVRQAPGQGLEWMGMINPSGGSTSYAQKFQGRVTMTRDTSTSTVYMELSSLRSEDTAVYYCARSDRGITSTDAFDIWGQGTMVTVSSGGGGSGGGGSGGGGSQSVLTQPPSVSLAPGQTAKITCGGSDIGNKNVHWYQQKPGQAPVLVVYDDYNRPSGIPERFSGSNSGDSATLTISTVEVGDEADYFCQVWDGSGDPYWVFGGGTQLTVLG",
    "measured": "< 0.01 µg/mL"
  },
  {
    "binder": "human anti-CD19 ScFv binder M19217-40 (scFv) EVQLVQSGAEVKRPGASVKVSCKASGYTFTSYYMHWVRQAPGQGLVWMGLINPSGGSTSYAQKFQGRVTMTRDTSTSTVYMELSSLRSEDTAVYYCARSDRGITATDAFDIWGQGTMVTVSSGGGGSGGGGSGGGGSQSVLTQPPSVSVAPGQTAKTTCGGSDIGNKNVHWYQQKPGQAPVLVVYDDYDRPSGIPERFSGSNSGDAATLTISTVEVGDEADYVCQVWDGSGDPYWVFGGGTQLTVLG",
    "measured": "< 0.01 µg/mL"
  },
  {
    "binder": "human anti-CD19 ScFv binder M19217 (scFv) EVQLVQSGAEVKKPGASVKVSCKASGYTFTSYYMHWVRQAPGQGLEWMGIINPSGGSTSYAQKFQGRVTMTRDTSTSTVYMELSSLRSEDTAVYYCARSDRGITATDAFDIWGQGTMVTVSSGGGGSGGGGSGGGGSQSVLTQPPSVSVAPGQTAKITCGGSDIGNKNVHWYQQKPGQAPVLVVYDDYDRPSGIPERFSGSNSGDAATLTISTVEVGDEADYFCQVWDSSGDPYWVFGGGTQLTVLG",
    "measured": "0.5 µg/mL"
  },
  {
    "binder": "human anti-CD19 ScFv binder M19217-29 (scFv) EVQLVQSGAEVKKPGASVKVSCKASGYTFTSYYMHWVRQAPGQGLEWMGMINPSGGSTSYAQKFQGRVTMTRDTSTSTVYMELSSLRSEDTAVYYCARSDRGITATDAFDIWGQGTMVTVSSGGGGSGGGGSGGGGSQSVLTQPPSVSVAPGQTAKITCGGSDIGNKNAHWYQQKPGQAPVLVVYDDYDRPSGISERFSGSNSGDAATLTISTVEVGDEADYFCQVWDGSGDPFWVFGGGTQLTVLG",
    "measured": "< 0.01 µg/mL"
  }
]
